# Assay System: Polyunsaturated fatty acid lipoxygenase ALOX12 (Homo sapiens) (UniProt P18054)
# Sequence (P18054 whole entry): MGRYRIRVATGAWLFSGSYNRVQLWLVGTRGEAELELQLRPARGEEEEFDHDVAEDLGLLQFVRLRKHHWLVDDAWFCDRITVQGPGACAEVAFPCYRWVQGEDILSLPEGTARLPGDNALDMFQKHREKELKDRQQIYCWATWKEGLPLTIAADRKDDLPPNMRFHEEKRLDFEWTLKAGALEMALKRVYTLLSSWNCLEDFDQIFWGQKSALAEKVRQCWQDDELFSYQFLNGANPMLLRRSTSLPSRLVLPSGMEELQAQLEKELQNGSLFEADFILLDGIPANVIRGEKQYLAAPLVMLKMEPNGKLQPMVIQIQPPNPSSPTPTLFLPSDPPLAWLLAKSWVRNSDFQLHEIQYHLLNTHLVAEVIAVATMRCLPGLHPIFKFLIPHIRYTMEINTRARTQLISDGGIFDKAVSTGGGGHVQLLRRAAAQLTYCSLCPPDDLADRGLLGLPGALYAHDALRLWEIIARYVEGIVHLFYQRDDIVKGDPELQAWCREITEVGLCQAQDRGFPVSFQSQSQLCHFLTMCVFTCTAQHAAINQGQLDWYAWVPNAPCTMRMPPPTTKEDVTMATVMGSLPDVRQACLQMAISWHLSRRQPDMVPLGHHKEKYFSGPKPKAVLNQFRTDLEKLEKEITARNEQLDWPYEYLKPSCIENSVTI
# Assay Text: Inhibition of 12-LO in human PMNL using arachidonic acid as substrate assessed as residual activity at 10 uM preincubated for 15 mins
Binary call on Activity with cut-off 90%: strictly below means yes (1), and equality or higher means no (0).

Some solved cases for reference:
{"Molecule": "O=C1C=C(O)C(=O)C(CC2CCC3CCCCC3C2)=C1O (stereo not given)", "Assay System": "Polyunsaturated fatty acid lipoxygenase ALOX12 (Homo sapiens) (UniProt P18054)", "Label Value": "yes (1)"}
{"Molecule": "Oc1ccc(Cc2ccccc2)c(O)c1", "Assay System": "Polyunsaturated fatty acid lipoxygenase ALOX12 (Homo sapiens) (UniProt P18054)", "Label Value": "yes (1)"}

Ask: Is Activity of `O=C1C=C(Cc2ccc3ccccc3c2)C(=O)C=C1O` strictly below 90%?
Result: yes (1)

Ask: Is Activity of `Oc1ccc(-c2ccccc2)c(O)c1` strictly below 90%?
Result: yes (1)

Ask: Is Activity of `O=C1C=C(Cc2ccc3cc(C(=O)O)ccc3c2)C(=O)C=C1O` strictly below 90%?
Result: yes (1)

Ask: Is Activity of `COC1=CC(=O)C(O)=C(Cc2ccc3ccccc3c2)C1=O` strictly below 90%?
Result: yes (1)

Ask: Is Activity of `Oc1ccc(-c2cccc3c2oc2ccccc23)c(O)c1` strictly below 90%?
Result: no (0)

Ask: Is Activity of `O=C(Cc1ccc2ccccc2c1)c1ccc(O)cc1O` strictly below 90%?
Result: no (0)

Ask: Is Activity of `O=C1C=C(O)C(=O)C(CC2CCCCC2)=C1O` strictly below 90%?
Result: yes (1)
